Reference source: PubChem BioAssay

assay-notes: drug combination growth inhibition, ovarian cancer – cell-based, oncology-focused library, rucaparib conditional, profiling panel (AID 1508598)
condition-description: patient-derived ovarian cancer cells, CellTiter-Glo viability, 144 h; at 1.25 µM; OCI-P5x cells; without rucaparib; hits give low values
readout-name: viability (%)
Give bare numbers, in %.

>>> result_value("CC(C)C[C@H](NP(=O)(O)O[C@@H]1O[C@@H](C)[C@H](O)[C@@H](O)[C@H]1O)C(=O)N[C@@H](Cc1c[nH]c2ccccc12)C(=O)O")
91.1
>>> result_value("OCCn1cc(-c2ccc3c(c2)CCC3=NO)c(-c2ccncc2)n1")
96.5
>>> result_value("CO[C@H]1C[C@@H]2CC[C@@H](C)[C@@](O)(O2)C(=O)C(=O)N2CCCC[C@H]2C(=O)O[C@H]([C@@H](C)C[C@@H]2CC[C@@H](OCCO)[C@H](OC)C2)CC(=O)[C@H](C)/C=C(\\C)[C@H](O)[C@@H](OC)C(=O)[C@H](C)C[C@H](C)/C=C/C=C/C=C/1C")
60.4
>>> result_value("Cc1cc(C)c(-c2csc(NC(=O)c3ccccc3)n2)c(C)c1")
100

Please state, for each entry, its recorded viability.
1. C=CCNC1=C2C[C@@H](C)C[C@H](OC)[C@H](O)[C@@H](C)/C=C(\C)[C@H](OC(N)=O)[C@@H](OC)/C=C\C=C(\C)C(=O)NC(=CC1=O)C2=O
2. CCCCCOC(=O)Nc1nc(=O)n([C@@H]2O[C@H](C)[C@@H](O)C2O)cc1F (stereo partly drawn)
3. CO[C@H]1C[C@@H]2CC[C@@H](C)[C@@](O)(O2)C(=O)C(=O)N2CCCC[C@H]2C(=O)O[C@H]([C@H](C)C[C@@H]2CC[C@@H](O)[C@H](OC)C2)CC(=O)[C@H](C)/C=C(\C)[C@@H](O)[C@H](OC)C(=O)[C@H](C)C[C@H](C)/C=C/C=C/C=C/1C
4. CCOC(=O)NCCCC(=O)NCCc1ccccc1
5. CC1(C)C=C(CN2C/C(=C/c3ccc(F)cc3)C(=O)/C(=C/c3ccc(F)cc3)C2)C(C)(C)N1O
6. CC1(C)O[C@@H]2C[C@H]3[C@@H]4CCC5=CC(=O)C=C[C@]5(C)[C@]4(F)[C@H](O)C[C@]3(C)[C@@]2(C(=O)CO)O1

Result:
5.3
116
61.2
99.1
105
97.8

Record viability for all entries; do not skip any.
1. COc1cc(=C2C=c3ccccc3=N2)[nH]/c1=C\c1[nH]c(C)cc1C
2. COc1cccc2c1C(=O)c1c(O)c3c(c(O)c1C2=O)C[C@@](O)(C(C)=O)C[C@H]3O[C@H]1C[C@H](N)[C@H](O)[C@H](C)O1
3. CN(C)CCOc1ccc(-c2nc(-c3ccc4c(c3)CCC4=NO)c(-c3ccncc3)[nH]2)cc1
4. C[C@@]12CC[C@H]3c4ccc(O)cc4C[C@@H](CCCCCCCCCS(=O)CCCC(F)(F)C(F)(F)F)[C@H]3[C@@H]1CC[C@@H]2O (stereo partly drawn)
5. C[C@@]1(c2nc3c(C(N)=O)cccc3[nH]2)CCCN1

Result:
1. 22
2. 5.33
3. 108
4. 121
5. 87.4

# return viability for each item in the list
1. CO[C@H]1C[C@H]2CC[C@@H](C)[C@@](O)(O2)C(=O)C(=O)N2CCCC[C@H]2C(=O)O[C@H]([C@H](C)C[C@@H]2CC[C@H](OC(=O)C(C)(CO)CO)[C@H](OC)C2)CC(=O)[C@H](C)/C=C(\C)[C@@H](O)[C@@H](OC)C(=O)[C@H](C)C[C@H](C)/C=C/C=C/C=C/1C
2. O=c1[nH]c(=O)n([C@@H]2C[C@H](O)[C@@H](CO)O2)cc1F
3. CC(=O)O[C@]12CO[C@@H]1C[C@H](O)[C@]1(C)C(=O)[C@H](O)C3=C(C)[C@H](OC(=O)[C@H](O)[C@@H](NC(=O)OC(C)(C)C)c4ccccc4)C[C@](O)([C@H](OC(=O)c4ccccc4)C21)C3(C)C (stereo partly drawn)
4. O=C(/C=C/c1ccc2ccccc2n1)c1ccncc1
5. Nc1nonc1C(=Nc1ccc(F)c(Cl)c1)NO
6. C=CS(=O)(=O)NC1CCN(C(=O)CNc2cc(I)c(Cl)cc2OC)CC1
7. C=C1/C(=C/C=C2\CCC[C@@]3(C)[C@H]2CC[C@H]3[C@H](C)/C=C/[C@@H](C)C(C)C)C[C@H](O)C[C@@H]1O

Result:
[55.6, 85.9, 20.7, 111, 99.5, 84.8, 103]

Look up viability for the entries below, preserving their order.
1. CC(=O)O[C@@]1(C(C)=O)CC[C@H]2[C@@H]3C[C@H](C)C4=CC(=O)CC[C@]4(C)[C@@H]3CC[C@@]21C
2. CC1=C(/C=C/C(C)=C\C=C\C(C)=C/C(=O)O)C(C)(C)CCC1
3. Cc1[nH]c(C=C2C(=O)Nc3ccc(S(=O)(=O)Cc4c(Cl)cccc4Cl)cc32)c(C)c1C(=O)N1CCC[C@@H]1CN1CCCC1
4. CC[C@]1(O)C[C@@H]2CN(CCc3c([nH]c4ccccc34)[C@@](C(=O)OC)(c3cc4c(cc3OC)N(C=O)[C@H]3[C@@](O)(C(=O)OC)[C@H](OC(C)=O)[C@]5(CC)C=CCN6CC[C@@]43[C@@H]65)C2)C1
5. CN(C)CCSSCCNC(=O)C1CCN(C(=O)CSc2ccc(Cl)cc2)CC1
6. COc1cc([C@H]2c3cc4c(cc3[C@@H](O[C@@H]3O[C@@H]5CO[C@@H](C)O[C@H]5[C@H](O)[C@@H]3O)[C@H]3COC(=O)[C@H]23)OCO4)cc(OC)c1O

Result:
1: 111; 2: 92.3; 3: 87; 4: 12.2; 5: 90.1; 6: 42.6
